tested on: HCV 1b_Huh-Luc/Neo-ET cell line persistently expressing a bicistronic genotype 1b replicon in Huh 7 cells; assay: HCV replicon assay (luciferase readout); format: cell-based; details: Hepatitis C virus, Huh-7, 72 h, read-out: Inhibition of HCV genotype 1b
quantity_kind: EC50

Below, each entry is followed by its recorded EC50 result.
smiles_entry	EC50
COC(=O)N[C@H](C(=O)N1CCC[C@H]1c1nc2ccc(C#Cc3ccc(-c4ccc5nc([C@@H]6CCCN6C(=O)[C@@H](NC(=O)OC)C(C)C)[nH]c5c4)nc3)cc2[nH]1)C(C)C	< 1 nM
CC(C)[C@H](NC(=O)OC(C)(C)C)C(=O)N1CCC[C@H]1c1ncc(-c2ccc(C#Cc3ccc(-c4cnc([C@@H]5CCCN5C(=O)[C@@H](NC(=O)OC(C)(C)C)C(C)C)[nH]4)cc3)cc2)[nH]1	10 to 999 nM

get_value(item= `COC(=O)N[C@H](C(=O)N1CCC[C@H]1c1nc2ccc3cc(C#Cc4ccc(-c5cnc([C@@H]6CCCN6C(=O)[C@H](NC(=O)OC)c6ccccc6)[nH]5)cc4)ccc3c2[nH]1)C(C)C` , readout=EC50) returns < 1 nM

get_value(item= `O=S(=O)(c1ccccc1)N1CCC[C@H]1c1ncc(-c2ccc(C#Cc3ccc4nc([C@@H]5CCCN5S(=O)(=O)c5ccccc5)[nH]c4c3)cc2)[nH]1` , readout=EC50) returns > 1000 nM

get_value(item= `COC(=O)N[C@@H](C(=O)N1CCC[C@H]1c1ncc(-c2ccc(C#Cc3ccc(-c4cnc([C@@H]5CCCN5C(=O)[C@H](NC(=O)N5CCN(C)CC5)c5ccccc5)[nH]4)cc3)cc2)[nH]1)c1ccccc1` , readout=EC50) returns < 1 nM

---

tested on: HCV 1b_Huh-Luc/Neo-ET cell line persistently expressing a bicistronic genotype 1b replicon in Huh 7 cells; assay: HCV replicon assay (luciferase readout); assay type: cell-based; details: Hepatitis C virus, Huh-7, 72 h, read-out: Inhibition of HCV genotype 1b
quantity_kind: EC50

smiles_entry	EC50
COC(=O)N[C@@H](C(=O)N1CCC[C@H]1c1ncc(-c2ccc(C#Cc3ccc(-c4cnc([C@@H]5CCCN5C(=O)[C@@H](c5ccccc5)N5CCCC5)[nH]4)cc3)cc2)[nH]1)c1ccccc1	< 1 nM
C[C@@H](NC(=O)[C@@H]1CCCN1C(=O)[C@H](NC(=O)C1CC1)c1ccccc1)c1ccc(C#Cc2cnc([C@@H]3CCCN3C(=O)[C@H](NC(=O)C3CC3)c3ccccc3)[nH]2)cc1	> 1000 nM

get_value(item= `COC(=O)N[C@H](C(=O)N1CCC[C@H]1c1ncc(-c2ccc(C#Cc3ccc(-c4cnc([C@@H]5CCCN5C(=O)[C@@H](Nc5ncccn5)C(C)C)[nH]4)cc3)cc2)[nH]1)C(C)C` , readout=EC50) returns < 1 nM

---

system: HCV 1b_Huh-Luc/Neo-ET cell line persistently expressing a bicistronic genotype 1b replicon in Huh 7 cells; experiment: HCV replicon assay (luciferase readout); format: cell-based; conditions: Hepatitis C virus, Huh-7, 72 h, read-out: Inhibition of HCV genotype 1b
quantity_kind: EC50

Below, each entry is followed by its recorded EC50 result.
smiles_entry	quantity_kind	reading
COC(=O)N[C@@H](C(=O)N1CCC[C@H]1c1ncc(-c2ccc(C#Cc3ccc(-c4cnc([C@@H]5CCCN5C(=O)OCc5ccccc5)[nH]4)cc3)cc2)[nH]1)c1ccccc1	EC50	< 1 nM
COC(=O)N[C@H](C(=O)N1CCC[C@H]1c1ncc(-c2ccc(C#Cc3ccc(-c4cnc([C@@H]5CCCN5C(=O)[C@@H](c5ccccc5)N5CCC(C)(O)CC5)[nH]4)cc3)cc2)[nH]1)C(C)C	EC50	< 1 nM
CC(C)[C@H](NC(=O)[C@H](NC(=O)OC(C)(C)C)c1ccccc1)c1ncc(-c2ccc(C#Cc3ccc(-c4cnc([C@@H]5CCCN5C(=O)[C@H](NC(=O)OC(C)(C)C)c5ccccc5)[nH]4)cc3)cc2)[nH]1	EC50	1 to 9.9 nM
O=C(N[C@@H](C(=O)N1CCC[C@H]1c1ncc(-c2ccc(C#Cc3ccc(-c4cnc([C@@H]5CCCN5C(=O)[C@@H](c5ccccc5)N5CCOCC5)[nH]4)cc3)cc2)[nH]1)c1ccccc1)C1CC1	EC50	< 1 nM

Continue with the compound presented below.
get_value(item= `COC(=O)N[C@H](C(=O)N1CCC[C@H]1c1ncc(-c2ccc(C#Cc3ccc(-c4cnc([C@@H]5CCCN5C(=O)[C@H](NC(=O)N5CCC(C)(O)CC5)c5ccccc5)[nH]4)cc3)cc2)[nH]1)C(C)C` , readout=EC50) returns < 1 nM

The measured values listed here are drawn from patent US8865756B2.
